Cited source for all entries: the supplement of paper PMC11908140

# key: entry, value: 8OG:A repair function score
B1: library; numbered along this chain (parent)
chain: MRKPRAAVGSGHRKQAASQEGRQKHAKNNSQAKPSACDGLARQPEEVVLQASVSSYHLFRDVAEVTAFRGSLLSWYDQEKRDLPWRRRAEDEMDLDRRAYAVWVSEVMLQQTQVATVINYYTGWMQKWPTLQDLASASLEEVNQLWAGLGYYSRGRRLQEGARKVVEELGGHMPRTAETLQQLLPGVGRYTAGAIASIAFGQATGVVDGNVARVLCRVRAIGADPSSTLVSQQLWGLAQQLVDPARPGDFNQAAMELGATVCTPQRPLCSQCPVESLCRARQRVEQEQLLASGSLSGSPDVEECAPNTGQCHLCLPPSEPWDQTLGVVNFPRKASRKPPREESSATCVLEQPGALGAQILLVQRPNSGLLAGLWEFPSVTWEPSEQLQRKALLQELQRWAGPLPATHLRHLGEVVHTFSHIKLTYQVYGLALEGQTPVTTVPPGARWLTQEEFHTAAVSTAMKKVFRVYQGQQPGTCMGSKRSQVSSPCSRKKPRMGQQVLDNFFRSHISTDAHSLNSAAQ

- Variants of: B1
- assayComment: 8OG:A repair function score (normalized; synonymous = 0, nonsense = -1) (normalized log-likelihood score); higher = more repair activity (WT-like);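 also: cells sorted at 72 h after reporter transfection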
- reportedConditions: with 8OG:A DNA repair reporter (GFP) in HEK-293 MUTYH KO cells

mutationDescriptor	valueObserved
G161V	-0.579
D512F	-0.0699
R446E	-0.312

stdin: Dear colleague, I am looking for the recorded 8OG:A repair function score of the following variant: "S138R"
stdout: 0.0347

stdin: Dear colleague, I am looking for the recorded 8OG:A repair function score of the following variant: "V458G"
stdout: -0.853

stdin: Dear colleague, I am looking for the recorded 8OG:A repair function score of the following variant: "A445D"
stdout: -1.09

stdin: Dear colleague, I am looking for the recorded 8OG:A repair function score of the following variant: "P185G"
stdout: -0.141

stdin: Dear colleague, I am looking for the recorded 8OG:A repair function score of the following variant: "Y151N"
stdout: -1.33

stdin: Dear colleague, I am looking for the recorded 8OG:A repair function score of the following variant: "T460H"
stdout: -0.38

stdin: Dear colleague, I am looking for the recorded 8OG:A repair function score of the following variant: "A203H"
stdout: 0.0237
